The measurements presented in this section are drawn from patent US6365584B1.

# measured_on: UniProtKB Q15661
# Sequence (Q15661 31-275): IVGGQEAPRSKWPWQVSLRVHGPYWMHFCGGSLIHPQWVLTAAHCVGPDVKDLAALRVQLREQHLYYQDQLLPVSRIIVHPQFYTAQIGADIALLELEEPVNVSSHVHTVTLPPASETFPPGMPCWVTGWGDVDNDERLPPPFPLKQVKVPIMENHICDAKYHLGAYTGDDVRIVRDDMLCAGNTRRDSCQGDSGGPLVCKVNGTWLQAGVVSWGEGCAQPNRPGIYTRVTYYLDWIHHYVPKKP
# experimental_protocol: tryptase inhibition test (cleavage of N-p-tosyl-Gly-Pro-Lys-para-nitroaniline, p-nitroaniline measured at 405 nm)
# condition_summary: Tris HCl buffer pH 7.4 with calcium and heparin; substrate 0.6 mM; 5 min pre-incubation, 5 min incubation at 37° C.; enzyme activity 0.91 U/ml
Entries whose IC50 is below 60 nM take true; entries at or above 60 nM take false.

Previously resolved entries follow.
{"compound": "Cn1c(CCc2ccc(C(=N)N)cc2)nc2cc(N(CCN3CCCC3)S(=O)(=O)c3ccccc3)ccc21", "label_class": "true"}
{"compound": "CN1CCC(CN(c2ccc3c(c2)nc(CCc2ccc(C(=N)N)cc2)n3C)S(=O)(=O)c2ccccc2)C1 (stereo not shown)", "label_class": "false"}
{"compound": "Cn1c(CCc2ccc(C(=N)N)cc2)nc2cc(N(C3CCNC3)S(=O)(=O)c3ccccc3)ccc21 (stereo not shown)", "label_class": "false"}
{"compound": "CCCN(CCC)C1CCC(N(c2ccc3c(c2)nc(CCc2ccc(C(=N)N)cc2)n3C)S(=O)(=O)c2ccccc2)CC1 (stereo not shown)", "label_class": "false"}

Q: Does this compound meet the criterion IC50 < 60 nM? Cn1c(CCc2ccc(C(=N)N)cc2)nc2cc(N(Cc3ccccn3)S(=O)(=O)c3ccc4ccccc4c3)ccc21
Result: true

Q: Please determine if CCN(CC)CCN(c1ccc2c(c1)nc(CCc1ccc(C(=N)N)cc1)n2CCOC)S(=O)(=O)c1ccccc1 is below 60 nM in terms of IC50.
Result: false

Q: For CN(C)c1ccc(CN(c2ccc3c(c2)nc(CCc2ccc(C(=N)N)cc2)n3C)S(=O)(=O)c2ccccc2)cc1 , is the recorded IC50 below the cut-off of 60 nM?
Result: false
